Target: interaction between PD-1 and PD-L1 (Homo sapiens (Human))
Sequence (Q9NZQ7 19-238): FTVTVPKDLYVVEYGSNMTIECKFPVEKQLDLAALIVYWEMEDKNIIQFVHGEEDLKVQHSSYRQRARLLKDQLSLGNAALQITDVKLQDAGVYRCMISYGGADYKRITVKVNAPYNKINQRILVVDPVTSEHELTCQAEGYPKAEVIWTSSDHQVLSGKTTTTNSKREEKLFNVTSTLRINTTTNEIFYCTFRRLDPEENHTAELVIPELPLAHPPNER
Experiment: PD1-PDL1 HTRF binding activity test (Cisbio PD-1/PD-L1 binding assay kit)
Conditions: read-out: PD1-PDL1 HTRF Binding Activity IC50
outcome measure: pIC50
Would you please state pIC50, meaning minus log10 of the concentration in mol/L, as a bare number?

Completed entries (count: 4):
Cc1c(NC(=O)c2cc(C3CC3)c(CN3CCCC[C@H]3C(=O)O)cn2)cccc1-c1cccc(NC(=O)c2cc(C3CC3)c(CN3CCCC[C@H]3C(=O)O)cn2)c1C ... 9.17
COc1cc(C(=O)Nc2cccc(-c3cccc(NC(=O)c4cc(OC)c(CN[C@@H](C)CO)cn4)c3C)c2C)ncc1CN[C@@H](C)CO ... 9.54
COc1cc(C(=O)Nc2cccc(-c3cccc(NC(=O)c4cc(OC)c(CN[C@@H]5CCOC5=O)cn4)c3C)c2C)ncc1CN[C@@H]1CCOC1=O ... 9.27
CCOC(=O)C1(NCc2cnc(C(=O)Nc3cccc(-c4cccc(NC(=O)c5cc(C6CC6)c(CNC6(C(=O)OCC)CC6)cn5)c4C)c3C)cc2C2CC2)CC1 ... 6.95

Attention now turns to another entry.
GET /value?item= COC[C@@H](NCc1cnc(C(=O)Nc2cccc(-c3cccc(NC(=O)c4cc(OC)c(CN[C@H](COC)C(=O)OC)cn4)c3C)c2C)cc1OC)C(=O)OC &field=pIC50 returns 8.11
